// data source = patent US10570117B2

test: Solubility in gastric juice or intestinal juice model fluid (precipitation method using DMSO); assay type: physicochemical; details: pH 1.2, simulated gastric fluid, kinetic from dmso stock, 1st fluid for Disintegration Test of Japanese Pharmacopoeia (pH: 1.2), room temperature, read-out: Solubility (μg/mL) 1st fluid
Answer each item with its documented solubility at 24 h.
Give the quantity in µg/mL, number only.

**Query** What value of solubility at 24 h has been reported for the following compound? COc1cc(-c2cnc(C(C)(C)C)[nH]2)ccc1OCc1ncc(C(F)(F)F)cc1F [Example 380]
**Result** 81.2

**Query** Again, but for COc1cc(-c2cnc(C3CCC(F)(F)CC3)[nH]2)ccc1OCc1ncc(C(F)(F)F)cc1F [Example 323]
**Result** 78.3

**Query** Again, but for COc1cc(OCc2ccc(C(F)(F)F)cn2)ccc1-c1c(Cl)nc(-c2ccc(Cl)nc2)n1CC1CC1 [Example 295]
**Result** 18.3

**Query** Again, but for COc1cc(OCc2ccc(C(F)(F)F)nc2)ccc1-c1cnc(-c2ccc(Br)nc2)[nH]1 [Example 388]
**Result** 0.8

**Query** Again, but for COc1cc(-c2[nH]c(C(C)(C)C)nc2Cl)ccc1OCc1ncc(C(F)(F)F)cc1F [Example 384]
**Result** 86.4

**Query** Again, but for Oc1cc(OCc2ncc(C(F)(F)F)cc2F)ccc1-c1[nH]c(-c2ccc(F)nc2)nc1Br [Example 408]
**Result** 1.9

**Query** Again, but for COc1cc(OCc2ncc(F)cc2F)ccc1-c1cnc(-c2ccc(F)nc2)[nH]1 [Example 140]
**Result** 7.8

**Query** Again, but for COc1cc(-c2c[nH]c(C3CCC(C)CC3)n2)ccc1OCc1ccc(C(F)(F)F)cn1 (centres unmarked) [Example 64]
**Result** 56.2

**Query** Again, but for COc1cc(OCc2ccc(C(F)(F)F)cn2)ccc1-c1c[nH]c(-c2ccc(C)nc2)n1 [Example 80]
**Result** 84.9

**Query** Again, but for COc1cc(OCc2ccc(C(F)(F)F)nc2)ccc1-c1[nH]c(-c2ccc(F)nc2)nc1C#N [Example 409]
**Result** 1.3

**Query** Again, but for COc1cc(OCc2ncc(C(F)(F)F)cc2F)ccc1-c1[nH]c(C2CC(F)(F)C2)nc1Br [Example 400]
**Result** 97.1

**Query** Again, but for COc1cc(-c2c[nH]c(-c3ccc(Cl)nc3)n2)c(OC)cc1OCc1ccc(C(F)(F)F)cn1 [Example 56]
**Result** 4.8

**Query** Again, but for COc1cc(OC(C)c2ncc(Br)cc2F)ccc1-c1cnc(-c2ccc(F)nc2)[nH]1 (centres unmarked) [Example 128]
**Result** 94.9

**Query** Again, but for COc1cc(OCc2ccc(S(=O)(=O)OC)cn2)ccc1-c1c[nH]c(-c2ccc(Cl)nc2)n1 [Example 44]
**Result** 11.9

**Query** Again, but for COc1cc(-c2[nH]c(C3CC3)nc2Cl)ccc1OCc1ncc(C(F)(F)F)cc1F [Example 378]
**Result** 81.6

**Query** Again, but for COc1cc(-c2[nH]c(C3CC(F)(F)C3)nc2Br)ccc1OCc1ccc(C(F)(F)F)nc1 [Example 178]
**Result** 98.5

**Query** Again, but for COc1cc(OCc2ncc(Br)cc2F)ccc1-c1cnc(-c2ccc(F)nc2)[nH]1 [Example 111]
**Result** 9.4

**Query** Again, but for COc1cc(OCc2ccc(C(F)(F)F)nc2)c(C)cc1-c1[nH]c(C2CCC(F)(F)CC2)nc1Cl [Example 192]
**Result** 22.6

**Query** Again, but for COc1cc(OCc2ccc(C(F)(F)F)cn2)ccc1-c1c(C)nc(-c2ccc(Cl)nc2)n1C [Example 165]
**Result** 96

**Query** Again, but for COc1cc(OCc2ccc(C(F)(F)F)cn2)ccc1-c1c[nH]c(-c2ccc(N3CCCC3)nc2)n1 [Example 58]
**Result** 94.4

**Query** Again, but for COc1cc(OCc2ncc(C(F)(F)F)cc2F)ccc1-c1cnc(C2CCCC2)[nH]1 [Example 365]
**Result** 77.9

**Query** Again, but for COc1cc(OCc2ccc(C(F)(F)F)cn2)ccc1-c1[nH]c(C2CCC(F)(F)CC2)nc1Cl [Example 210]
**Result** 95.6

**Query** Again, but for COc1cc(OCc2ccc(C(F)(F)F)cn2)ccc1-c1c(Br)nc(-c2ccc(Cl)nc2)n1C [Example 301]
**Result** 15.1

**Query** Again, but for COc1cc(OCc2ncc(C(F)(F)F)cc2F)ccc1-c1cnc(C2CC2)[nH]1 [Example 375]
**Result** 73.9

**Query** Again, but for COc1cc(OCc2ncc(Cl)cc2C(F)(F)F)ccc1-c1[nH]c(-c2ccc(F)nc2)nc1Br [Example 274]
**Result** 6.7

**Query** Again, but for COc1cc(OCc2ncc(C(F)(F)F)cc2F)ccc1-c1[nH]c(C(C)C)nc1Cl [Example 385]
**Result** 84.7
